Listed here are compounds together with their documented IC50.
tested_system: CDK7/Cyclin H/MAT1 complex (Homo sapiens, UniProt P50613)
Sequence (P50613 whole entry): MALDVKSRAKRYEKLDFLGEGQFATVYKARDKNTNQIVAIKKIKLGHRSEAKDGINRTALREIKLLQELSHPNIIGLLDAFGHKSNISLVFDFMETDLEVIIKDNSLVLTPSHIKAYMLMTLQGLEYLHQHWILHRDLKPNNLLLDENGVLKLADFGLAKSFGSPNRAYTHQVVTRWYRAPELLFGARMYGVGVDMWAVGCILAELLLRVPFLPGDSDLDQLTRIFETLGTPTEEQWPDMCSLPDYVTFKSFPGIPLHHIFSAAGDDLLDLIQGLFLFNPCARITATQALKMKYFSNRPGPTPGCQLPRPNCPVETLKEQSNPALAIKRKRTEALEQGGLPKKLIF
Sequence (P51946 whole entry partner): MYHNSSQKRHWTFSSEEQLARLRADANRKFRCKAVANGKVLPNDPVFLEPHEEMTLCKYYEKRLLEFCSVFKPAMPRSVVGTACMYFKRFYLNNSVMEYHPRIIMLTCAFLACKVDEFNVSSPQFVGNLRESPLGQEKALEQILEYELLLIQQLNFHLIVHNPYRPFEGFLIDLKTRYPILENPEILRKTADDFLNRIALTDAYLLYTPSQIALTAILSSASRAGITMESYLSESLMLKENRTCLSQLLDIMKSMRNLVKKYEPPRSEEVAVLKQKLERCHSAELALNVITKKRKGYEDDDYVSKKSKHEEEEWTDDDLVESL
Sequence (P51948 whole entry partner): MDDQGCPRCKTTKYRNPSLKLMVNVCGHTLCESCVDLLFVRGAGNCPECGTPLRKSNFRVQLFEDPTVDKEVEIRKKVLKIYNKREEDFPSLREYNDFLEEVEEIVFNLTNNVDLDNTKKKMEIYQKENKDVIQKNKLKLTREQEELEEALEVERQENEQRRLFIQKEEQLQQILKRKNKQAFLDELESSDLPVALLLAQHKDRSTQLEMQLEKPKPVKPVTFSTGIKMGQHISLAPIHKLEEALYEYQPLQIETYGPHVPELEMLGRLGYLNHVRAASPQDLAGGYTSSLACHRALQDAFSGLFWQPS
measurement_protocol: CDK7 kinase inhibition assay (Caliper/LabChip EZ Reader)

mol | IC50
Cc1noc(C)c1-c1ccc2c(-c3nc(N[C@H]4CCC[C@@H]4N)ncc3C(F)(F)F)c[nH]c2c1 | < 0.03 µM
COCCN[C@H]1CCC[C@@H]1Nc1ncc(C(F)(F)F)c(-c2c[nH]c3cc(C#N)ccc23)n1 | < 0.03 µM
Cc1noc(C)c1-c1ccc2c(-c3nc(N[C@H]4CCC[C@@H]4NCCO)ncc3C(F)(F)F)c[nH]c2n1 | < 0.03 µM
Cc1nsc(-c2ccc3c(-c4nc(N[C@H]5CCC[C@@H]5N)ncc4C(F)(F)F)c[nH]c3n2)n1 | < 0.03 µM
Cc1noc(C)c1-c1ccc2c(-c3nc(N[C@H]4C[C@H]5CC[N@](CC5)C4)ncc3C(F)(F)F)c[nH]c2n1 | < 0.03 µM

Now take the following compound into account.
Query `Cc1noc(C)c1-c1ccc2c(-c3nc(N[C@H]4CCC[C@@H]4N4CC[C@H](F)C4)ncc3C(F)(F)F)c[nH]c2n1` yields IC50 of 0.03 to 0.1 µM
